system: K-562; assay: SRB colorimetric assay of cell growth and viability, K-562; type: cell-based, human; settings: 48 hours exposure; read-out: LC50 K-562
Where a SMILES comes first, the peptide text is derived from it. Bridges are numbered along the chain shown (N, C = ends). [ ]: non-standard residue; d: D form. The star is where a group is joined. d(aIle) = CC[C@H](C)[C@@H](N)C(=O)O; d(aThr) = C[C@@H](O)[C@@H](N)C(=O)O; Hexanoyl(5-Me) = CC(C)CCCC(=O)*; Orn = NCCC[C@H](N)C(=O)O; Dhb = C/C=C(\N)C(=O)O
measured property: CC50 (µM)
Give bare numbers, in µM.

Sample answers from the record:
{"molecule": "C/C=C1\\NC(=O)[C@H](Cc2ccccc2)NC(=O)[C@@H](C(C)C)NC(=O)[C@@H]([C@@H](C)CC)NC(=O)[C@H](NC(=O)[C@H](NC(=O)[C@H](CCCN)NC(=O)[C@H]2CCCN2C(=O)[C@H](NC(=O)[C@@H](NC(=O)[C@@H](NC(=O)[C@H](NC(=O)C(F)(F)C(F)(F)C(F)(F)C(F)(F)C(F)(F)C(F)(F)F)C(C)C)[C@@H](C)O)C(C)C)C(C)C)[C@@H](C)CC)[C@@H](C)OC(=O)[C@H](C(C)C)NC1=O [Compound 26, [Pfh^14]-KF]", "result units": "µM", "CC50": 4.07}
{"molecule": "C/C=C1\\NC(=O)[C@H](Cc2ccccc2)NC(=O)[C@@H](C(C)C)NC(=O)[C@@H]([C@@H](C)CC)NC(=O)[C@H](NC(=O)[C@H](NC(=O)[C@H](CCCN)NC(=O)[C@H]2CCCN2C(=O)[C@H](NC(=O)[C@@H](NC(=O)[C@@H](NC(=O)[C@H](NC(=O)Cc2ccc(C(F)(F)F)cc2)C(C)C)[C@@H](C)O)C(C)C)C(C)C)[C@@H](C)CC)[C@@H](C)OC(=O)[C@H](C(C)C)NC1=O [Compound 25, [p-CF3PhAc^14]-KF]", "result units": "µM", "CC50": 6.44}

Return reported CC50 values for all items listed beneath this line.
1. C/C=C1\NC(=O)[C@H](Cc2ccccc2)NC(=O)[C@@H](C(C)C)NC(=O)[C@@H]([C@@H](C)CC)NC(=O)[C@H](NC(=O)[C@H](NC(=O)[C@H](CCCN)NC(=O)[C@H]2CCCN2C(=O)[C@H](NC(=O)CCCC(C)C)C(C)C)[C@@H](C)CC)[C@@H](C)OC(=O)[C@H](C(C)C)NC1=O [Compound 31, [noVal^11, noThr^12, noD-Val^13]-KF] ({Hexanoyl(5-Me)}-[dV][dP][Orn][d(aIle)][d(aThr)][d(aIle)][dV]F[Dhb]V; ester 5-C)
2. C/C=C1\NC(=O)[C@H](Cc2ccccc2)NC(=O)[C@@H](C(C)C)NC(=O)[C@@H]([C@@H](C)CC)NC(=O)[C@H](NC(=O)[C@H](NC(=O)[C@H](CCCN)NC(=O)[C@H]2CCCN2C(=O)[C@H](NC(=O)[C@@H](NC(=O)[C@H](CC(C)C)NC(=O)CCCC(C)C)C(C)C)C(C)C)[C@@H](C)CC)[C@@H](C)OC(=O)[C@H](C(C)C)NC1=O [Compound 54, [Leu^12, noD-Val^13]-KF] ({Hexanoyl(5-Me)}-LV[dV][dP][Orn][d(aIle)][d(aThr)][d(aIle)][dV]F[Dhb]V; ester 7-C)
3. C/C=C1\NC(=O)[C@H](Cc2ccccc2)NC(=O)[C@@H](C(C)C)NC(=O)[C@@H]([C@@H](C)CC)NC(=O)[C@H](NC(=O)[C@H](NC(=O)[C@H](CCCN)NC(=O)[C@H]2CCCN2C(=O)[C@H](NC(=O)[C@@H](NC(=O)[C@@H](NC(=O)[C@H](NC(=O)CCCCCCC)C(C)C)[C@@H](C)O)C(C)C)C(C)C)[C@@H](C)CC)[C@@H](C)OC(=O)[C@H](C(C)C)NC1=O [Compound 18, [Oct^14]-KF]

Return:
8.18
4.41
4.02

Data origin: patent US20070117743A1
